- assayed target: Glycogen synthase kinase-3 beta (Homo sapiens, UniProt P49841)
- Sequence (P49841 whole entry): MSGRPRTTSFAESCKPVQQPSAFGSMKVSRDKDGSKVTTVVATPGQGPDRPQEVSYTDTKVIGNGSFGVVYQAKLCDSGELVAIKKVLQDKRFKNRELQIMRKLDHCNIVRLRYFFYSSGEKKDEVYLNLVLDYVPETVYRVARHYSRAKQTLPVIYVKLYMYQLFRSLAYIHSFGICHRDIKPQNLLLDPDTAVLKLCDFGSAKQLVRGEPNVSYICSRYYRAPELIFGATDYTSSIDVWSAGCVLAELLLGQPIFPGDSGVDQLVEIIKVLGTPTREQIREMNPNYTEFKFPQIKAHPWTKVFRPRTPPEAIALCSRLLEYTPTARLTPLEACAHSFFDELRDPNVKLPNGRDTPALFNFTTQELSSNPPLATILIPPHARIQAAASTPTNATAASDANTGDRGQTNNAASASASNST
The label is yes (1) for IC50 below 10 µM and no (0) for IC50 equal to or exceeding 10 µM.

1. CC(C)(C)c1ccc(-n2cc(Cn3c(=O)oc4cccnc43)nn2)cc1 = no (0)
2. Cc1ccccc1-n1cc(Cn2c(=O)oc3cccnc32)nn1 = yes (1)
3. O=c1oc2cccnc2n1Cc1cn(-c2ccc(Cl)cc2Cl)nn1 = no (0)
4. O=c1oc2cccnc2n1Cc1cn(-c2ccc(Cl)cc2)nn1 = yes (1)
5. O=c1oc2cccnc2n1Cc1cn(-c2ccc(F)cc2)nn1 = yes (1)
6. O=c1oc2cccnc2n1Cc1cn(-c2ccc(Cl)c(Cl)c2)nn1 = no (0)
7. O=c1oc2cccnc2n1Cc1cn(-c2ccc([N+](=O)[O-])cc2)nn1 = no (0)

Reference for the values: BindingDB's records for doi:10.1111/cbdd.12724
